# Test system: LXRa:RXRa (NR concentration 270 nM, RXRa partner concentration 90 nM)
# ASSAY TEXT: PBM binding z-score (relative to random genomic background probes); higher = stronger binding; sequences stand for … in GC…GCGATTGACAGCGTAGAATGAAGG
Provide the recorded PBM binding z-score for the entries that follow.
Just the number.

*Q* Fill in: PBM binding z-score of CCTGCTAGGTCAATGGTCAGCGAAAGCAGCTCGC is ___
*A* 2.4

*Q* Using the record for TAGCCTAGGTCATTCATGGGCCAGTATAGAAAGC , report its PBM binding z-score.
*A* 3.5

*Q* Entry under review: CAGACTGGGGCATAAGGTTACCATAAGCCAGCCC . Reported PBM binding z-score?
*A* 2.35

*Q* Could you share which PBM binding z-score value was measured for CCTCGGAGGACAACAGGAGGTCAGAACTGCCAGA ?
*A* 1.86

*Q* Which measured PBM binding z-score value corresponds to TCTCGGAGGACACGAACGTCAGAGCTTTCCAGAG ?
*A* 0.0114

*Q* What measured PBM binding z-score goes with AGAACGAGGGCACGCTGAGTTGATAGCCGAGTAG ?
*A* 0.509

*Q* Would you kindly share the measured PBM binding z-score for TTACCAAGGTGAAAGGTCGTTCATGCACGCCTTG ?
*A* 3.72

*Q* Param item = TCTCGGAGGACACGAAAGGTCAGAGCGCGACATC ; retrieve measured PBM binding z-score.
*A* 4.07

*Q* PBM binding z-score lookup needed for AGAATGTGGTTATACGTAGATCAGGGAAGAAAGT , thanks.
*A* 0.271

###

# Tested on: PPARg DBDmut IVT, anti-PPARg (DBD mutation: PPARg1 K132A/R137A, NR concentration 270 nM)
# ASSAY TEXT: PBM binding z-score (relative to random genomic background probes); higher = stronger binding; sequences stand for … in GC…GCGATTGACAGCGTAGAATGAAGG
For each of the sequences below, state its PBM binding z-score.
Form field (numeric): enter value without unit.

*Q* Recorded PBM binding z-score for CCGACTGGGGCAAGGTTACCGTAACGCACAGCCA , please?
*A* -1

*Q* // query PBM binding z-score value for entry TCTGCTAGGTCAGTTGGTAAGCTAACGAGCTGCC
*A* 0.0442

*Q* Reported PBM binding z-score, sequence GGAACGAGGGAATTCGAGTTGATAGCATGGCGAT : ____
*A* 0.0147

*Q* Item CCTACTGGGCCACGAAAGGTCATTGCTTCAGTGA has what recorded PBM binding z-score?
*A* 1.06

*Q* What does the data say about its PBM binding z-score? Entry: GCTTGTAGATCAAGGTGAAGAAAGACTAAGCTAA
*A* -0.503

*Q* Requested read-out: PBM binding z-score. Entry: ACAGACAAGTGAGTGAAGGTAACTCAGCTGGACG
*A* 0.39

*Q* Tell me the measured PBM binding z-score of TCTCGGAGCACACGAAGGTCAGAGCTTTCCAGAG , please.
*A* -1.03

*Q* Which PBM binding z-score is reported for this sequence? TCATATAGGTAAAATGTGAAAGTCGGTGTGGTAA
*A* 0.643

*Q* Entry AGAACGAGGGCACGATGAGTTGATAGCAGAGTAG has what PBM binding z-score?
*A* 0.0308

*Q* Data request, read-out PBM binding z-score, for TCTTGGAGATCAACAGGAGGTTAAGAAAGATCGA
*A* 0.526

*Q* Fill in the blank: the reported PBM binding z-score of TCTATTAGTTGATGGGCAACCGACGAGTCCGTTT is ____.
*A* 1.05

*Q* So what does the record say about PBM binding z-score for TCTTTTAGATCAACAGGAGGTTAAGAAAGATCGA ?
*A* 1.69

*Q* Which PBM binding z-score value belongs to ATGTCTAGGTAAGACTCAGTTCAGTGAAGAACGC ?
*A* 0.538

*Q* For GCTTGTAGATCAACGTTAAGAAAGACTAAGCTAA , what is its reported PBM binding z-score?
*A* 0.507

*Q* GET /values?readout=PBM binding z-score&item= CGACCAAGGTCAGCAGGTCAGTGAAAGCGACGTG
*A* -0.609

*Q* Which PBM binding z-score is reported for this sequence? CCTAGTTGGTCAAGGTCGCACACGCTATAGGTAC
*A* 0.288

*Q* Quick check: PBM binding z-score of TCGAGTAGGTTCCCAATGGGGCATTCAGCTTTCT ?
*A* -1.09

*Q* If you can, please state the reported PBM binding z-score value of TCTCGAAGGACACGAAAGGTCAGAGCTCGACATC .
*A* 0.551

*Q* Any idea what its PBM binding z-score is? The sequence is TCGTATAGGTAAAAGGTGAAAGTCGGTGTGGTAA
*A* 0.179

*Q* State the recorded PBM binding z-score for this entry: CGAACTAGGTCAGAACAGGTCAGTGAAGGATGAT
*A* 1.73

*Q* What value of PBM binding z-score has been reported for the following sequence? TCGAGTAGGTTACCAATGGGGCATTCACCTTTCT
*A* 0.508

*Q* Name the recorded PBM binding z-score for AGTCAAAGTTCATTTAGGTAACGTAAGATATGCT .
*A* 1.51

*Q* Entry GGAACGAGGGCATTCGAGTTGATAGAATGGCGAT has what PBM binding z-score?
*A* -0.814

*Q* Can you share its PBM binding z-score? I mean this sequence: CCGACTGGGGCAGAAAGGTTACCATCCCATCCGG
*A* -1.37

*Q* Name the recorded PBM binding z-score for CCTTACGGGTCCAGGTTATAGCACGGGTGGTACG .
*A* -1.74

*Q* Entry ATCGAAAGGTCGGAGGTGAGTATACCCACCCGAA has what PBM binding z-score?
*A* 0.559

*Q* What measured PBM binding z-score goes with CCTGCTAGGTCATGATCAGCTAATCTACAGTATG ?
*A* 0.49

*Q* For the sequence shown here, CAAACTAGGTCAAAGGTCAAAGTCGAGCCAACCA , give the reported PBM binding z-score.
*A* 2.15

*Q* Consider the sequence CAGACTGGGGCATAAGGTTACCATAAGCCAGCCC and give its measured PBM binding z-score.
*A* -0.433

*Q* Look up PBM binding z-score for this sequence: CCTTACTGGTCACTGACAGGTTATAGCATTTGGA
*A* 0.913

*Q* I'd like to know its PBM binding z-score. The sequence in question is GCAGACAGGTGTAACGCAGGTAACTCAGGGTGGC
*A* -1.52
